Test system: HCT-15 colon
Experiment: NCI-60 one-dose screen, 48 h (100 = growth as untreated, 0 = no growth, -100 = all killed)
Conditions: 10 µM unless noted
The panel holds about 83,000 compounds, 20% with a hit somewhere; the sample as a whole holds those more often.
API: label(entry) gives 1 (yes) if the entry's growth is strictly smaller than 90%; on equality or larger values it gives 0 (no).

Query: For COCC(N)=O , is the recorded growth below the cut-off of 90%?
Result: 0 (no)

Query: For COc1cc(C(=O)N2CCN(c3ccccc3)CC2)c2ccccc2n1 , is the recorded growth below the cut-off of 90%?
Result: 1 (yes)

Query: For CC(=O)C1C(=O)C(=O)N(c2ccc(Cl)c(Cl)c2)C1=O (centres undefined) , is the recorded growth below the cut-off of 90%?
Result: 0 (no)

Query: For O=C(O)c1ccc(OCc2ccccc2)cc1 , is the recorded growth below the cut-off of 90%?
Result: 0 (no)

Query: For COC1C(=O)CCC2(CO2)C1(O)C1(C)OC1CCC(C)C (centres undefined) , is the recorded growth below the cut-off of 90%?
Result: 1 (yes)

Query: For CC(=O)/C(C)=N\OC(=O)Nc1ccccc1 , is the recorded growth below the cut-off of 90%?
Result: 0 (no)

Query: For Cc1ccccc1NC(=O)Oc1ccc(Cl)cc1C(=O)c1ccccc1 , is the recorded growth below the cut-off of 90%?
Result: 0 (no)

Query: For NNc1ncnc2nc[nH]c12 , is the recorded growth below the cut-off of 90%?
Result: 1 (yes)

Query: For O=[n+]1ccn([O-])c2ccccc21 , is the recorded growth below the cut-off of 90%?
Result: 0 (no)

Query: For CCCCn1cnc2c(=O)[nH]cnc21 , is the recorded growth below the cut-off of 90%?
Result: 0 (no)

Query: For O=C(N/N=C\c1ccc(Cl)cc1Cl)c1ccncc1 , is the recorded growth below the cut-off of 90%?
Result: 0 (no)

Query: For CCOC(C=O)OCC , is the recorded growth below the cut-off of 90%?
Result: 0 (no)

Query: For O=C(O)CC1=CCCCC1 , is the recorded growth below the cut-off of 90%?
Result: 0 (no)

* * *

System: PC-3 prostate
Experiment: NCI-60 one-dose screen, 48 h (100 = growth as untreated, 0 = no growth, -100 = all killed)
Settings: 10 µM unless noted
Compounds without any hit were thinned out: in the full panel of roughly 83,000, 20% have a hit.
recorded-endpoint: growth (%)
Quick note: give the figure in %, leave out the unit.

Given the compound CC(C)NC(=O)OCc1c(COC(=O)NC(C)C)c(-c2ccc(Cl)cc2)n2c1CCC2 and test system PC-3 prostate, the measured growth is 68.2

Given the compound Cc1cc(CO)c(O)c(CO)c1 and test system PC-3 prostate, the measured growth is 101

Given the compound CCOC(=O)CNC(=O)Sc1ccc(C(C)(C)C)cc1 and test system PC-3 prostate, the measured growth is 106

Given the compound COc1ccc2c(Cl)cc(NC(=O)Nc3c(C)cccc3C)nc2c1 and test system PC-3 prostate, the measured growth is 72.4

Given the compound Cc1cc2c3ccc(C)[n+](C)c3ccc2n1C and test system PC-3 prostate, the measured growth is 8.69

Given the compound CC(CCC#N)(CCC#N)C(=O)c1ccccc1 and test system PC-3 prostate, the measured growth is 87.8

Given the compound CCC(C)C1CCC(O)CC1 (stereo not drawn) and test system PC-3 prostate, the measured growth is 100

Given the compound Cc1ccccc1NC(=O)Oc1ccc(Cl)cc1C(=O)c1ccccc1 and test system PC-3 prostate, the measured growth is 95.2

Given the compound CCOC(=O)CNC and test system PC-3 prostate, the measured growth is 93.9

Given the compound Cc1ccc(C2CCCCC2)cc1Br and test system PC-3 prostate, the measured growth is 94

Given the compound NC(=S)c1c(N)n(C2OC(CO)C(O)C2O)c2ncnc(N)c12 (stereo not drawn) and test system PC-3 prostate, the measured growth is -10.1

Given the compound CCOc1ccncc1[N+](=O)[O-] and test system PC-3 prostate, the measured growth is 106

Given the compound BrCc1cccc(C[P+](c2ccccc2)(c2ccccc2)c2ccccc2)c1 and test system PC-3 prostate, the measured growth is 23.2

* * *

I'd be grateful if you could share measured growth for these entries.
System: TK-10 renal
Experiment: NCI-60 one-dose screen, 48 h (100 = growth as untreated, 0 = no growth, -100 = all killed)
Details: 10 µM unless noted
This is part of a sample that, as a whole, favours compounds with a hit. Of some 83,000 tested, about 20% had one in any assay.
Quick note: give the figure in %, leave out the unit.

Given the molecule C#CC(O)c1ccccc1 (stereo not drawn) and test system TK-10 renal, the measured growth is 99.5

Given the molecule CCN(CC)CCOC(=O)Nc1c(C(C)C)cccc1C(C)C and test system TK-10 renal, the measured growth is 105

Given the molecule O=C(O)c1c[nH]c2ccccc2c1=O and test system TK-10 renal, the measured growth is 97.7

Given the molecule OCc1cccnc1 and test system TK-10 renal, the measured growth is 102

Given the molecule Nc1nnc2cc(F)ccc2n1 and test system TK-10 renal, the measured growth is 126

Given the molecule CCCCCC#CC(=O)O and test system TK-10 renal, the measured growth is 104

Given the molecule O=Cc1ccc(Cl)c(Cl)c1 and test system TK-10 renal, the measured growth is 98

Given the molecule Cc1ccccc1CC(N)C(=O)O (stereo not drawn) and test system TK-10 renal, the measured growth is 115

* * *

I'd be grateful if you could share measured growth for these entries.
System: 786-0 renal
Assay: NCI-60 one-dose screen, 48 h (100 = growth as untreated, 0 = no growth, -100 = all killed)
Conditions: 10 µM unless noted
Method: Cells are grown in 96 well plates and exposed to the test compound for 48 hours. Compounds are tested at a single concentration, which is 10^-5 M for most compounds. The reported endpoint is percent growth (GI% or GIPRCNT), where numbers from 0 - 100% represent growth inhibition, and numbers from -100% - 0 represent cell death. For example, a value of 40 represents 60% growth inhibition. A value of 0 means no net growth occurred over the course of the experiment. […]
This is part of a sample that, as a whole, favours compounds with a hit. Of some 83,000 tested, about 20% had one in any assay. Activity calls are given as the source filed them. How the source made its calls: active means growth percent below 10; inactive means the rest.

Notebook: C/C=C/C1OCC(CC)C(CCC)O1 (stereo not drawn) , growth read as 111% (inactive)

Notebook: CCCCOC(=O)c1ccccc1O , growth read as 109% (inactive)

Notebook: COC(=O)Cc1cc(COC(C)=O)ccc1C , growth read as 100% (inactive)

Notebook: O=S(=O)(OCCOS(=O)(=O)c1ccccc1)c1ccccc1 , growth read as 93.5% (inactive)

Notebook: Cc1nc(O)cc(=O)[nH]1 , growth read as 114% (inactive)

Notebook: O=C(NC1CCCCC1)c1ccc(Cl)cc1 , growth read as 103% (inactive)

Notebook: COc1cc(N)c2ncccc2c1Cl , growth read as 95% (inactive)

Notebook: Clc1ccc(/C=C/c2ccccn2)cc1 , growth read as 98.1% (inactive)
